- target entity: Bcat-Halo (UniProt P35222)
- Sequence (P35222 whole entry): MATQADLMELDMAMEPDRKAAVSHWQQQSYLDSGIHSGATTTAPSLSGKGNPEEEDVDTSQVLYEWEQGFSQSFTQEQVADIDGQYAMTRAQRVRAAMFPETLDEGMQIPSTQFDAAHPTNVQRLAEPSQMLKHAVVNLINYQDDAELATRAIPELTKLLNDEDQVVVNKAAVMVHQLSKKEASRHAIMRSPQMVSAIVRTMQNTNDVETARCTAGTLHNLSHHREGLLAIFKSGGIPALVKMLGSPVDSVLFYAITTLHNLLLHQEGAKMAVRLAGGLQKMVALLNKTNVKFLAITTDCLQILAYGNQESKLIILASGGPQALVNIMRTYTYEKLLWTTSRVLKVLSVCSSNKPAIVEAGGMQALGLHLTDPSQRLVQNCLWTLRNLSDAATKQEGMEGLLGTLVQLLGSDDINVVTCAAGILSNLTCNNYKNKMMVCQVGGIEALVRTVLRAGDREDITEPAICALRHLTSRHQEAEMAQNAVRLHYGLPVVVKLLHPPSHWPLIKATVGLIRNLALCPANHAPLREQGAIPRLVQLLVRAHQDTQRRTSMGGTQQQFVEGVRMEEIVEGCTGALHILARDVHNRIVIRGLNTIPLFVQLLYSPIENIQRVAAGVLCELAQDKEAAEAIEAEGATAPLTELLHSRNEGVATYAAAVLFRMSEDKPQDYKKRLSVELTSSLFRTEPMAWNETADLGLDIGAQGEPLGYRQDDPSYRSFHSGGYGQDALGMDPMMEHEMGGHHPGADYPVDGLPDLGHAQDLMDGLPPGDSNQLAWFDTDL
- assay comment: NanoBRET Abs IC50, HEK293 cells, Bcat-Halo/TCF4-Luc; competitor TCF4-Luc
Starred links: 1 amine or outer side, 2 acyl side, 3 side chain; linkers in the order of their positions; H or OH if unused. Positions of bridges follow the written chain, without caps; N, C: chain ends. Non-standard residues stand in square brackets, D forms with d. Primed or numbered codes have the meaning given here. *: point of attachment. B5(5) = 2,2-bis(4-pentenyl)glycine, 2-amino-2-(pent-4-en-1-yl)hept-6-enoic acid (stitching residue), C=CCCCC(CCCC=C)(N[*:1])C(=O)[*:2]; PyrS2 = (S)-3-amino-1-((pent-4-en-1-yloxy)carbonyl)pyrrolidine-3-carboxylic acid, C=CCCCOC(=O)N1CC[C@@](N[*:1])(C(=O)[*:2])C1; Phe(2-Cl) = N[C@@H](Cc1ccccc1Cl)C(=O)O; Bta = N[C@@H](Cc1csc2ccccc12)C(=O)O; αAllylPro = C=CC[C@@]1(C(=O)O)CCCN1; tBuAla = CC(C)(C)C[C@H](N)C(=O)O; iPr = CC(C)*
Listing of entries alongside the reported pIC50.
Quick note: pIC50 values are minus log10 of concentrations in mol/L.

See these solved cases before continuing.
# binder, measured value
data = [
    ("Ac-[αAllylPro]D[tBuAla][B5(5)]DEAAFK(iPr)[PyrS2][Phe(2-Cl)][Bta]L-NH2 (staple 1-4, 4-11) [I-1283]", 4.41),
    ("Ac-[αAllylPro]D[tBuAla][B5(5)]DEAAFK(iPr)[PyrS2][Phe(2-Cl)][Bta]T-NH2 (staple 1-4, 4-11) [I-1282]", 4.37),
]

Consider the record given below.
For this binder ( Ac-[αAllylPro]D[tBuAla][B5(5)]DDAAFK(iPr)[PyrS2][Phe(2-Cl)][Bta]Q-NH2 (staple 1-4, 4-11) [I-1278] ), measured pIC50 is 4.74
